Tested on: BT-474
Experiment: viability inhibition at highest dose (% inhibition); higher = more growth inhibition
Experimental Setup: 4-OH-tamoxifen in medium 1 µM; 72 h
Where a name gives a salt, the structure may show the parent alone.
Mark true only for viability inhibition at highest dose values smaller than 80; exact matches and larger values are false.

>  <Compound>
CN(C)C[C@@H]1CCn2cc(c3ccccc32)C2=C(C(=O)NC2=O)c2cn(c3ccccc23)CCO1 (drug 10000 nM)

>  <Qualitative Label>
false

$$$$
>  <Compound>
C/C(=C\c1csc(C)n1)[C@@H]1C[C@@H]2O[C@]2(C)CCC[C@H](C)[C@H](O)[C@@H](C)C(=O)C(C)(C)[C@@H](O)CC(=O)O1 [Patupilone (Epothilone B)] (drug 1000 nM)

>  <Qualitative Label>
true

$$$$
>  <Compound>
CC1(C)NC(=O)N(c2ccc([N+](=O)[O-])c(C(F)(F)F)c2)C1=O [Nilutamide] (drug 10000 nM)

>  <Qualitative Label>
true

$$$$
>  <Compound>
CC/C(=C(\c1ccccc1)c1ccc(OCCN(C)C)cc1)c1ccccc1 [Tamoxifen citrate] (drug 10000 nM)

>  <Qualitative Label>
false

$$$$
>  <Compound>
CCc1c(C(=O)C(N)=O)c2c(OCC(=O)O)cccc2n1Cc1ccccc1 [Varespladib] (drug 10000 nM)

>  <Qualitative Label>
true

$$$$
>  <Compound>
NC(=O)c1ccc(I)c([N+](=O)[O-])c1 (drug 10000 nM)

>  <Qualitative Label>
true

$$$$
>  <Compound>
CC(C)C(=O)Nc1ccc([N+](=O)[O-])c(C(F)(F)F)c1 [Flutamide] (drug 10000 nM)

>  <Qualitative Label>
true

$$$$

Now examine the next entry.
Query: I wonder whether O=C(CCCCCCC(=O)Nc1ccc([C@H]2O[C@@H](CSc3nc(-c4ccccc4)c(-c4ccccc4)o3)C[C@@H](c3ccc(CO)cc3)O2)cc1)NO [Tubacin] (drug 10000 nM) has viability inhibition at highest dose below 80. Can you tell?
Result: false
